biological target: ISOC2 (Homo sapiens, UniProt Q96AB3); construct: endogenous in cells; assay: Competition binding assay in cell lysate, affinity matrix, MS
Sequence (Q96AB3 whole entry): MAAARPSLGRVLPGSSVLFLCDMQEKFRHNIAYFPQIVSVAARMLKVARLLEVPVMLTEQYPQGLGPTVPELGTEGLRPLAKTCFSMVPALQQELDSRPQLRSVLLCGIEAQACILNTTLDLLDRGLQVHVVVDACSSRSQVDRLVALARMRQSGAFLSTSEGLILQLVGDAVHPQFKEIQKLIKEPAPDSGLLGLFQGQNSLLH
test-readout: IC50

Q) Recorded IC50 of Nc1ccccc1NC(=O)c1ccc(CNC(=O)OCc2cccnc2)cc1 , please.
A) ≥ 300 µM

* * *

Target: HDAC10 (Homo sapiens, UniProt Q969S8)
Construct: used to probe endogenous HDACs in K562 whole cell extracts; endogenous in cells
Sequence (Q969S8 1-669): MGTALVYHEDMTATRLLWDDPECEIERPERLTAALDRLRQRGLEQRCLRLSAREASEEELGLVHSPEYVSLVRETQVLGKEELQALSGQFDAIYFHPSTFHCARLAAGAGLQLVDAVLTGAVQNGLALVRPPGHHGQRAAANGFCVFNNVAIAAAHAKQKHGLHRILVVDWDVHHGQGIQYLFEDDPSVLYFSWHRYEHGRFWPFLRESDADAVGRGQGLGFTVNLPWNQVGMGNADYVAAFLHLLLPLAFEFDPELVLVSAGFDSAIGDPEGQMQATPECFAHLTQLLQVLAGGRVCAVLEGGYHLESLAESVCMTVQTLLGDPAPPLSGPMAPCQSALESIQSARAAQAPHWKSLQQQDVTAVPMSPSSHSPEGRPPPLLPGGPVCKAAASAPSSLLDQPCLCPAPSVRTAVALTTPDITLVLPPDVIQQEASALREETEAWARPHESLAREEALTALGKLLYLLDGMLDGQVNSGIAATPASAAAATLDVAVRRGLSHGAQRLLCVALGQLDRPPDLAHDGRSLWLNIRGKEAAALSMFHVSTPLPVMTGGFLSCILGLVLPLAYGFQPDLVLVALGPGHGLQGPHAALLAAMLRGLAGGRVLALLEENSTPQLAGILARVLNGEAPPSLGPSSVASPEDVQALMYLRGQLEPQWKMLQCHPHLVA
Experiment: Chemoproteomic binding profiling, K562 cell extract, SAHA/ITF2357 probe matrix (Kd app)
test-readout: Kd (µM)
Response body: numeric value in µM, unit text excluded.

Q) What does the record list as Kd for O=C(/C=C/c1cccc(S(=O)(=O)Nc2ccccc2)c1)NO [belinostat] ?
A) 4.43

* * *

tested on: NuRD complex; test: Chemoproteomic binding profiling, K562 cell extract, SAHA/ITF2357 probe matrix (Kd app); parameters: species or system human; settings: protein MBD3; NuRD complex; read-out: Kd^app MBD3
Kd strictly under 60 µM means 1; at 60 µM or over means -1.

Q) Say whether its Kd is strictly beneath 60 µM. Entry: CCCCOc1ccc(CC(=O)NO)cc1
A) -1

Q) Record CCCC(CCC)C(=O)O [valproate, valproic acid] : is its Kd strictly below 60 µM?
A) -1

Q) For this molecule, is Kd lower than 60 µM? CN(C)Cc1c(C(=O)NCCOc2ccc(C(=O)NO)cc2)oc2ccccc12
A) 1

Q) Threshold test, Kd < 60 µM: O=C(/C=C/c1ccc(CN(CCO)CCc2c[nH]c3ccccc23)cc1)NO
A) 1

* * *

target: ALDH2 (Homo sapiens, UniProt P05091); construct: endogenous in cells; assay: Competition binding assay in cell lysate, affinity matrix, MS; settings: IC50, ALDH2; mix of Jurkat and Ramos cell lysates
Sequence (P05091 18-517): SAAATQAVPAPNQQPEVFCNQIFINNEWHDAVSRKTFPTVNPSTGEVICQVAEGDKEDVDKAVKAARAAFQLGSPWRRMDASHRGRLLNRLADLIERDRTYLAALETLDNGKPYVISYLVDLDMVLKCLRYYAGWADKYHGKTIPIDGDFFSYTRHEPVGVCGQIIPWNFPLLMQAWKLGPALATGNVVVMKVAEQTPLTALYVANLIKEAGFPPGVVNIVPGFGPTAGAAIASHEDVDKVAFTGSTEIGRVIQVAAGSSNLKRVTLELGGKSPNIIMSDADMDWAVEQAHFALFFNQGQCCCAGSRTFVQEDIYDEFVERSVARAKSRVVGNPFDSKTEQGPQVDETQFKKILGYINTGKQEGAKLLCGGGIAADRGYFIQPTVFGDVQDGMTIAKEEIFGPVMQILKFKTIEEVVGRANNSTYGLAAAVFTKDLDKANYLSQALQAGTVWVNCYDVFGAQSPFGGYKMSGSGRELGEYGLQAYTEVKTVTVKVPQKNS
test-readout: IC50 (µM)
Express it in µM; write the number only.

Q) Requested field: IC50. Item: O=C(CCCCCCC(=O)Nc1ccccc1)NO [SAHA, suberoylanilide hydroxamic acid]
A) 4.81
